# SUBJECT OF TEST: OATP2B1 (Homo sapiens, UniProt O94956)
# TEST PROTOCOL: Uptake transporter assay, 3H-estrone sulfate uptake in HEK-293-OATP2B1 cells
# PARTICULARS: read-out: IC50 without preincubation; OATP2B1 expressing cells; mean ± SD of three independent experiments
READOUT: IC50 (µM)

MOLECULE	DATA VALUE
COc1ccc(O)cc1C(C)(C)C [Butylated hydroxyanisole (BHA), 2-tert-Butyl-4-hydroxyanisole]	76.9

---

# SUBJECT OF TEST: OATP2B1 (Homo sapiens, UniProt O94956)
# TEST PROTOCOL: Uptake transporter assay, 3H-estrone sulfate uptake in HEK-293-OATP2B1 cells
# PARTICULARS: read-out: IC50 OATP2B1; substrate 3H-estrone sulfate; mean ± SD of three independent experiments
READOUT: IC50 (µM)

COMPOUND	DATA VALUE
COc1ccc(O)cc1C(C)(C)C [Butylated hydroxyanisole (BHA), 2-tert-Butyl-4-hydroxyanisole]	71

---

# SUBJECT OF TEST: UniProt O94956
# TEST PROTOCOL: Uptake transporter assay, 3H-estrone sulfate uptake in HEK-293-OATP2B1 cells
# PARTICULARS: antioxidant 200 µM; uptake with DMSO set as 100%; mean ± SD, three replicates; HEK-293-OATP2B1 cells
READOUT: % Uptake of 3H-ES OATP2B1

COMPOUND	DATA VALUE
COC1=C(OC)C(=O)C(C/C=C(\C)CC/C=C(\C)CC/C=C(\C)CC/C=C(\C)CC/C=C(\C)CC/C=C(\C)CC/C=C(\C)CC/C=C(\C)CC/C=C(\C)CCC=C(C)C)=C(C)C1=O	116.1 ± 16.0%
C[N+](C)(C)[C@@H](Cc1c[nH]c(=S)[nH]1)C(=O)[O-]	118.2 ± 30.6%
Cc1cc(C(C)(C)C)c(O)c(C(C)(C)C)c1 [Butylated hydroxytoluene (BH), Butylated hydroxytoluene]	137.1 ± 34.8%

---

# SUBJECT OF TEST: P-gp (Homo sapiens, UniProt P08183)
# Construct: purchased ThermoFisher Scientific GM0015; host or cells: Sf9 membrane vesicles
# Sequence (P08183 whole entry): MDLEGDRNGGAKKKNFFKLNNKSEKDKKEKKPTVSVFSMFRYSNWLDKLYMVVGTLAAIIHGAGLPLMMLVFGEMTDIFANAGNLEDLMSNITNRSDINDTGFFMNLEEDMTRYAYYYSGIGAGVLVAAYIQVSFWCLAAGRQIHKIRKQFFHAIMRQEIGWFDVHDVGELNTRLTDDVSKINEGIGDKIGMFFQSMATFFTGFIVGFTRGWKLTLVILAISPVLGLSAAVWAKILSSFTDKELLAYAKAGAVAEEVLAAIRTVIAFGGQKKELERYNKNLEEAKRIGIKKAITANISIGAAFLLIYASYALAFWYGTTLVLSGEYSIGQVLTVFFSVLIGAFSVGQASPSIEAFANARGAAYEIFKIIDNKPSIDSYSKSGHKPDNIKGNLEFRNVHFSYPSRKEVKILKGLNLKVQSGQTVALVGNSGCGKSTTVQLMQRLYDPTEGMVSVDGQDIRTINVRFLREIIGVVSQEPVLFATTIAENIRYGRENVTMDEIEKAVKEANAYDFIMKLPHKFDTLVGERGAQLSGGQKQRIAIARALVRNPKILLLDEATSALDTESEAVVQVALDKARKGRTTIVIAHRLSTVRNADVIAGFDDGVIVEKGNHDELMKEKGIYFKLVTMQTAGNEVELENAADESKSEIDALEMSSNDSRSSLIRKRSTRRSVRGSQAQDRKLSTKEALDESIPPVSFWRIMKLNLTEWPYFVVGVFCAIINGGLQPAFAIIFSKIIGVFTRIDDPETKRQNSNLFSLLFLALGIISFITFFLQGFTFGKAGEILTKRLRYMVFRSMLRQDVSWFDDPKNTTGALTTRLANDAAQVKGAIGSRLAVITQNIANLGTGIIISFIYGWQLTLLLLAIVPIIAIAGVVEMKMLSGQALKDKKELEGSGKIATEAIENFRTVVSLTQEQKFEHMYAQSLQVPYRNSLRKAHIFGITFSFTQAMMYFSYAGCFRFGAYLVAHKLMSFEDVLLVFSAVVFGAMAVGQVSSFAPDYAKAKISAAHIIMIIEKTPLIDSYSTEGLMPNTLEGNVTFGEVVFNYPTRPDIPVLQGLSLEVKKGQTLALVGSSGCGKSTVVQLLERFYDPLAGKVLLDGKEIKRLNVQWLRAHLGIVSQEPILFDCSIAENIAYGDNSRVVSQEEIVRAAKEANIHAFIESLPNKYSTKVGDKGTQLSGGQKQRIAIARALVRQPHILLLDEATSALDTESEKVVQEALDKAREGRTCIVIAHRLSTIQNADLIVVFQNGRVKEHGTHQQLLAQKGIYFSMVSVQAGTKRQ
# TEST PROTOCOL: Vesicular transport assay, 3H-NMQ uptake in P-gp membrane vesicles
# Assay type: biochemical
# PARTICULARS: antioxidant 200 µM; uptake with DMSO set as 100%; mean ± SD, three replicates; membrane vesicles
Overview of recorded % Uptake of 3H-NMQ P-gp for various compounds

COMPOUND	UNITS LABEL	% Uptake of 3H-NMQ P-gp
NCCC(=O)N[C@@H](Cc1cnc[nH]1)C(=O)O	%	82.6
COc1cc(/C=C/C(=O)O)ccc1O	%	100.4
CSCC[C@H](N)C(=O)O	%	86.7
O=C1O[C@H]([C@@H](O)CO)C(O)=C1O	%	113.6
Cc1cc(C(C)(C)C)c(O)c(C(C)(C)C)c1 [Butylated hydroxytoluene (BH), Butylated hydroxytoluene]	%	98.1
O=C(O)c1ccc(O)c(O)c1 [3,4-dihydroxybenzoid acid, 3,4-dihydroxybenzoic acid]	%	118.9
COc1cc(/C=C/C(=O)CC(=O)/C=C/c2ccc(O)c(OC)c2)ccc1O [Curcumin, reference compound]	%	0.0
COc1ccc(O)cc1C(C)(C)C [Butylated hydroxyanisole (BHA), 2-tert-Butyl-4-hydroxyanisole]	%	42.1
O=S(O)S(=O)(=O)O [Sodium metabisulfite]	%	78.8
COC1=C(OC)C(=O)C(C/C=C(\C)CC/C=C(\C)CC/C=C(\C)CC/C=C(\C)CC/C=C(\C)CC/C=C(\C)CC/C=C(\C)CC/C=C(\C)CC/C=C(\C)CCC=C(C)C)=C(C)C1=O	%	90.3

---

Overview of recorded % Uptake of 3H-ES OATP2B1 for various molecules
# SUBJECT OF TEST: OATP2B1 (Homo sapiens)
# Sequence (O94956 1-709): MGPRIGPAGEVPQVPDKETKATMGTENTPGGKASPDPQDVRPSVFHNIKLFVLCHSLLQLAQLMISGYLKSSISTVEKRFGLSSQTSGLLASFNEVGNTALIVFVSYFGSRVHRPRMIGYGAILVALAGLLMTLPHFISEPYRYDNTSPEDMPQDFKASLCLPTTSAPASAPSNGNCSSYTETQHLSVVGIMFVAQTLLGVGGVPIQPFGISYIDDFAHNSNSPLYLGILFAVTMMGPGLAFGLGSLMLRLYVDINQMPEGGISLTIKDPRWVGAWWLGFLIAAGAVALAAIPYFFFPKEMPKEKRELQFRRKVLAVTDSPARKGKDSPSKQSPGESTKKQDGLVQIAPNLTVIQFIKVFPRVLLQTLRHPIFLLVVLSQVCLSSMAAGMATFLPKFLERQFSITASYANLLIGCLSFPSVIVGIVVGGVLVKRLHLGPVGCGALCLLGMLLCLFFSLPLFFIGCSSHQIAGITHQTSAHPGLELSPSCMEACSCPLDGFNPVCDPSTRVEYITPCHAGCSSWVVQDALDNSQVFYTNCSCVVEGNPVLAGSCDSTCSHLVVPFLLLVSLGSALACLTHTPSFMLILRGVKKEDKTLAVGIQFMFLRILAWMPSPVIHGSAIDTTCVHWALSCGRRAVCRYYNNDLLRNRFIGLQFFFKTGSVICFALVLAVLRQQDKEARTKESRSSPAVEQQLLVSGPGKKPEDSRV
# TEST PROTOCOL: Uptake transporter assay, 3H-estrone sulfate uptake in HEK-293-OATP2B1 cells
# PARTICULARS: antioxidant 200 µM; uptake with DMSO set as 100%; mean ± SD, three replicates; HEK-293-OATP2B1 cells

MOLECULE	SUBJECT OF TEST	% Uptake of 3H-ES OATP2B1 / %
O=S(O)S(=O)(=O)O [Sodium metabisulfite]	OATP2B1 (Homo sapiens)	118.9
N[C@@H](Cc1c[nH]cn1)C(=O)O [Histidine]	OATP2B1 (Homo sapiens)	108.9
N[C@@H](CCC(=O)N[C@@H](CS)C(=O)NCC(=O)O)C(=O)O [Glutathione]	OATP2B1 (Homo sapiens)	107.9
O=S([O-])O.[Na+] [Sodium bisulfite]	OATP2B1 (Homo sapiens)	90.1
C/C=C/C=C/C(=O)[O-].[K+] [Potassium sorbate]	OATP2B1 (Homo sapiens)	98.8
NCC(=O)O [Glycine]	OATP2B1 (Homo sapiens)	125.6
COc1ccc(O)cc1C(C)(C)C [Butylated hydroxyanisole (BHA), 2-tert-Butyl-4-hydroxyanisole]	OATP2B1 (Homo sapiens)	19.8
Oc1ccc2c(c1)OCO2 [Sesamol]	OATP2B1 (Homo sapiens)	103.1
O=C(O)/C=C/c1ccc(O)c(O)c1 [Caffeic acid]	OATP2B1 (Homo sapiens)	119.8
O.O.O.O.O.O=S([O-])([O-])=S.[Na+].[Na+] [Sodium thiosulfate, pentahydrate]	OATP2B1 (Homo sapiens)	104.4
O=S([O-])[O-].[Na+].[Na+] [Sodium sulfite]	OATP2B1 (Homo sapiens)	92.9
O=C1OC(c2ccc(O)c(S(=O)(=O)O)c2)(c2ccc(O)c(S(=O)(=O)O)c2)c2c(Br)c(Br)c(Br)c(Br)c21 [Bromosulfophthalein, reference compound]	OATP2B1 (Homo sapiens)	10.9
CCCCCCCCCCCCCCCC(=O)OC[C@H](O)[C@H]1OC(=O)C(O)=C1O [Ascorbyl palmitate (AP), Ascorbyl palmitate]	OATP2B1 (Homo sapiens)	28.3
CSCC[C@H](N)C(=O)O [Methionine]	OATP2B1 (Homo sapiens)	113.2
O=C(O)c1ccc(O)c(O)c1 [3,4-dihydroxybenzoid acid, 3,4-dihydroxybenzoic acid]	OATP2B1 (Homo sapiens)	85.4
CCCOC(=O)c1cc(O)c(O)c(O)c1 [Propyl gallate]	OATP2B1 (Homo sapiens)	79.3
CC(C)c1cc2c(c(O)c1O)[C@@]1(C(=O)O)CCCC(C)(C)[C@@H]1CC2 [Carnosic acid]	OATP2B1 (Homo sapiens)	18.8
COc1cc(/C=C/C(=O)O)ccc1O [Ferulic acid]	OATP2B1 (Homo sapiens)	136.4
NCCC(=O)N[C@@H](Cc1cnc[nH]1)C(=O)O [Carnosine]	OATP2B1 (Homo sapiens)	119.3
NCCCC[C@H](N)C(=O)O [Lysine]	OATP2B1 (Homo sapiens)	120.3

---

# SUBJECT OF TEST: BCRP (Homo sapiens)
# Sequence (Q9UNQ0 whole entry): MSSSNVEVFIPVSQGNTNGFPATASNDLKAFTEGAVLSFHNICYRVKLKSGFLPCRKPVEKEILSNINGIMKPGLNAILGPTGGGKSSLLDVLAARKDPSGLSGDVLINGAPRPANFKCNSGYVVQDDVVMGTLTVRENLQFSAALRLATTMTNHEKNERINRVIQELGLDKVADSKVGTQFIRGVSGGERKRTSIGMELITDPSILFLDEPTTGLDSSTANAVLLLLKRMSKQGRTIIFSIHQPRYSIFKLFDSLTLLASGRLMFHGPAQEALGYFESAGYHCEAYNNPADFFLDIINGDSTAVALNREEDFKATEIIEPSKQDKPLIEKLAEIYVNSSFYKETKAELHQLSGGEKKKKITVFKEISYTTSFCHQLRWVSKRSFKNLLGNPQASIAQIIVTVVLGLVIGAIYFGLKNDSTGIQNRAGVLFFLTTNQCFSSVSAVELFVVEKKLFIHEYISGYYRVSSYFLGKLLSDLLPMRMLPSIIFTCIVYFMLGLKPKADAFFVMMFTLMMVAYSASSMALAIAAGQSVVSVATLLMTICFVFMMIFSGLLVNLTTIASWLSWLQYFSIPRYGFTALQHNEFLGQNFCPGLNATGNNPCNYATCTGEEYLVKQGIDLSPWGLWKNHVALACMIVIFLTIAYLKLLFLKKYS
# TEST PROTOCOL: Vesicular transport assay, 3H-CCK8 uptake in BCRP membrane vesicles
# Assay type: biochemical
# Parameters: purchased ThermoFisher Scientific GM0008; host or cells: Sf9 membrane vesicles
# PARTICULARS: antioxidant 200 µM; uptake with DMSO set as 100%; mean ± SD, three replicates; membrane vesicles
Overview of recorded % Uptake of 3H-CCK8 BCRP for various compounds

COMPOUND	% Uptake of 3H-CCK8 BCRP [%]
NCCC(=O)N[C@@H](Cc1cnc[nH]1)C(=O)O	99.7
O=S([O-])[O-].[Na+].[Na+] [Sodium sulfite]	99.7
C[N+](C)(C)[C@@H](Cc1c[nH]c(=S)[nH]1)C(=O)[O-]	112.5
N[C@@H](CCC(=O)N[C@@H](CS)C(=O)NCC(=O)O)C(=O)O	95.9
N[C@@H](Cc1c[nH]cn1)C(=O)O	92.4
O=C1O[C@H]([C@@H](O)CO)C(O)=C1O	92.7
Oc1ccc2c(c1)OCO2	90.3
COc1ccc(O)cc1C(C)(C)C [Butylated hydroxyanisole (BHA), 2-tert-Butyl-4-hydroxyanisole]	46.7
C/C=C/C=C/C(=O)[O-].[K+] [Potassium sorbate]	104.8
O=C1OC(c2ccc(O)c(S(=O)(=O)O)c2)(c2ccc(O)c(S(=O)(=O)O)c2)c2c(Br)c(Br)c(Br)c(Br)c21 [Bromosulfophthalein, reference compound]	0.3
COC1=C(OC)C(=O)C(C/C=C(\C)CC/C=C(\C)CC/C=C(\C)CC/C=C(\C)CC/C=C(\C)CC/C=C(\C)CC/C=C(\C)CC/C=C(\C)CC/C=C(\C)CCC=C(C)C)=C(C)C1=O	82.7
O=C(O)c1ccc(O)c(O)c1 [3,4-dihydroxybenzoid acid, 3,4-dihydroxybenzoic acid]	78.5
Cl.N[C@@H](CS)C(=O)O [Cysteine hydrochloride]	90.0
O=S([O-])O.[Na+] [Sodium bisulfite]	110.4
O.O.O.O.O.O=S([O-])([O-])=S.[Na+].[Na+] [Sodium thiosulfate, pentahydrate]	114.2
C#Cc1cccc(Nc2ncnc3cc(OCCOC)c(OCCOC)cc23)c1 [Erlotinib, reference compound]	58.5
CSCC[C@H](N)C(=O)O	94.8
O=S(O)S(=O)(=O)O [Sodium metabisulfite]	94.5
